# Measurement target: ZAC^E160A/E162A/C195A (Homo sapiens, UniProt Q401N2, A152T/C219A/E184A/E186A)
# Test details: TEVC in oocytes, Cluster 4 triple mutant
# Condition context: agonist; n = 6
Readout kind: EC50 (µM)
Report the value in µM with no unit label.

Ask: Item [Cl-].[Cl-].[Zn+2] has what recorded EC50?
Result: 180

---

# Measurement target: WT ZAC (Homo sapiens, UniProt Q401N2, A152T)
# Construct: expressed in transfected cells; host or cells: Xenopus oocytes injected with cRNA (pUNIV vector)
# Sequence (Q401N2 26-412 A152T): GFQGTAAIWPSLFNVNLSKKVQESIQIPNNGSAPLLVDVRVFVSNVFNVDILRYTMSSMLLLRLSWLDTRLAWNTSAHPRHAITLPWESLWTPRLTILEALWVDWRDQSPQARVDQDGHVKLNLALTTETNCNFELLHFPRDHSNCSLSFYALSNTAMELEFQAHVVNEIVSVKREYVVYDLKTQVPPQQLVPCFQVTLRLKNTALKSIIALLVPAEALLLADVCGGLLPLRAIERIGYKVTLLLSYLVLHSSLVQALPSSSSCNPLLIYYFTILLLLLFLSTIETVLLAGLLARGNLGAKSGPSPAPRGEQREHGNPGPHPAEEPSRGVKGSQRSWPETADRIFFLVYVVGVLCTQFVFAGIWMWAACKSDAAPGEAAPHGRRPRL
# Test details: TEVC in Xenopus oocytes expressing WT ZAC
# Format: cell-based
# Condition context: agonist; oocytes of the Cluster 3 recordings, n = 12
Readout kind: EC50

Ask: Please look up its EC50: [Cl-].[Cl-].[Zn+2]
Result: 98 µM

---

# Measurement target: WT ZAC (Homo sapiens, UniProt Q401N2, A152T)
# Construct: expressed in transfected cells; host or cells: Xenopus oocytes injected with cRNA (pUNIV vector)
# Test details: TEVC in Xenopus oocytes expressing WT ZAC
# Type: cell-based
# Condition context: agonist; parallel recordings with Cluster 4 mutant, n = 5
Readout kind: EC50 (µM)
Please state the figure in µM; there is no need to write the unit.

Ask: Which EC50 is reported for this compound? [Cl-].[Cl-].[Zn+2]
Result: 310

---

# Measurement target: ZAC^L9′I (Homo sapiens, UniProt Q401N2, A152T/L270I)
# Test details: TEVC in oocytes, ZAC L9′I mutant
# Condition context: agonist; n = 8
Readout kind: EC50

Ask: Suppose we examine the molecule [Cl-].[Cl-].[Zn+2] ; what EC50 value has been reported?
Result: 24 µM

---

# Measurement target: ZAC^E24A (Homo sapiens, UniProt Q401N2, A152T/E48A)
# Sequence (Q401N2 26-412 E48A/A152T): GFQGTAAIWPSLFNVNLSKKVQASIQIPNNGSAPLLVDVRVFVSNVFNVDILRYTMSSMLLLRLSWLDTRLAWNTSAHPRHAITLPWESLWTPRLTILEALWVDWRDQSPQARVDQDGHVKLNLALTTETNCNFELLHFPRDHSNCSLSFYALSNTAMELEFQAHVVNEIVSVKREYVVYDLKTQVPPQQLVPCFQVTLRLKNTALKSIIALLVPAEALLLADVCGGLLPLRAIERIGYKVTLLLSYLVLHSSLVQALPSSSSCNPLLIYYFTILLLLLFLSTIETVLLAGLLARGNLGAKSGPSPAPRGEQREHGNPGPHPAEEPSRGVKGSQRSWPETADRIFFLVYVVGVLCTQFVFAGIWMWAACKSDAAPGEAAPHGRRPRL
# Test details: TEVC in oocytes, ZAC E24A mutant
# Condition context: agonist; n = 5
Readout kind: pEC50
Conceptually, pEC50 converts a concentration in mol/L into minus its log10.

Ask: Item under review: [Cl-].[Cl-].[Zn+2] . Reported pEC50?
Result: 4.15
